- method description: Fraction unbound in monkey plasma by equillibrium dialysis method
- Assay type: ADME, cell-free, Macaca mulatta
- experimental setup: rhesus monkey
Collected fraction unbound values appear next to each entry.
Answer as a number with no unit attached.

As a guide, the following entries are already answered.
- compound: "CN1C[C@@](C)(c2cc(F)cc(F)c2)N(CCCc2cnc3c(c2)C[C@@]2(C3)C(=O)Nc3ncccc32)C(=O)C12CCCC2"
  fraction unbound: 0.061
- compound: "CN1C[C@@](C)(c2cc(F)cc(F)c2)N(C/C=C/c2cnc3c(c2)C[C@@]2(C3)C(=O)Nc3ncccc32)C(=O)C12CCCC2"
  fraction unbound: 0.051
- compound: "CN1C[C@@](C)(c2cc(F)cc(F)c2)N(CC(=O)Nc2ccc3c(c2)C[C@@]2(C3)C(=O)Nc3ncccc32)C(=O)C1(C)C"
  fraction unbound: 0.117
- compound: "CN1C[C@@](C)(c2cc(F)cc(F)c2)N(C/C=C/c2ccc3c(c2)C[C@@]2(C3)C(=O)Nc3ncccc32)C(=O)C12CCCC2"
  fraction unbound: 0.002
- compound: "CN1C[C@@H](c2cc(F)cc(F)c2)N(CC(=O)Nc2ccc3c(c2)C[C@@]2(C3)C(=O)Nc3ncccc32)C(=O)C1(C)C"
  fraction unbound: 0.205

Return reported fraction unbound; argument: CC1(C)NC[C@@](C)(c2cc(F)cc(F)c2)N(CC(=O)Nc2ccc3c(c2)C[C@@]2(C3)C(=O)Nc3ncccc32)C1=O
0.333

// query fraction unbound value for entry CN1C[C@@](C)(c2cc(F)cc(F)c2)N(CC#Cc2cnc3c(c2)C[C@@]2(C3)C(=O)Nc3ncccc32)C(=O)C12CCCC2
0.031

Given the compound CN1C[C@@](C)(c2cc(F)cc(F)c2)N(CC#Cc2ccc3c(c2)C[C@@]2(C3)C(=O)Nc3ncccc32)C(=O)C12CCCC2 , what is its reported fraction unbound?
0.008

So what does the record say about fraction unbound for O=C(N[C@@H]1CC[C@@H](c2cccc(F)c2F)CN(CC(F)(F)F)C1=O)N1CCC(n2c(=O)[nH]c3ncccc32)CC1 [TELCAGEPANT] ?
0.038

Entry under review: CC1(C)NC[C@@H](c2cc(F)cc(F)c2)N(CC(=O)Nc2ccc3c(c2)C[C@@]2(C3)C(=O)Nc3ncccc32)C1=O . Reported fraction unbound?
0.429

Dear colleague, I am looking for the recorded fraction unbound of the following compound: CN1C[C@@](C)(c2cc(F)cc(F)c2)N(CC(=O)Nc2ccc3c(c2)C[C@@]2(C3)C(=O)Nc3ncccc32)C(=O)C12CCCC2
0.043

Report fraction unbound for CN1C[C@@](C)(c2cc(F)cc(F)c2)N(CCCc2ccc3c(c2)C[C@@]2(C3)C(=O)Nc3ncccc32)C(=O)C12CCCC2 please.
0.002

Where these numbers come from: ChEMBL document CHEMBL2429711
